The reported measurements were obtained from PubChem BioAssay (NCI).

System: NCI-H522 lung
Assay: NCI tumour cell line growth inhibition, 48 h
Where a SMILES comes first, the peptide text is derived from it. [ ]: non-standard residue; d: D form. The star is where a group is joined. Bn2Val = CC(C)[C@@H](C(=O)*)N(Cc1ccccc1)Cc1ccccc1; NH(4-F-benzyl) = Fc1ccc(CN*)cc1; NMeF = CN[CH](Cc1ccccc1)C(=O)O; NMeV = CN[CH](C(=O)O)C(C)C; dNMeA = CN[C@H](C)C(=O)O; Boc = CC(C)(C)OC(=O)*
attribute.measured: TGI

[[record]]
compound = "CNS(=O)(=O)NN(C)S(=O)(=O)c1ccc(OC)cc1"
measured_value = "> 100 µM"

[[record]]
compound = "Cc1cc(C)nc(NS(=O)(=O)c2ccc(NNc3c4ccccc4nc4c(C(=O)Nc5ccc(S(=O)(=O)N=C(N)N)cc5)cccc34)cc2)n1"
measured_value = "> 100 µM"

[[record]]
compound = "CC#CC#Cc1cccc(=O)o1"
measured_value = "16.3 µM"

[[record]]
compound = "O=C1NC(c2cccc3ccccc23)Nc2ccc(O)cc21 (centres undefined)"
measured_value = "92.3 µM"

[[record]]
compound = "Cc1cc2c(cc1C)[n+]([O-])c(NCCCN(C)C)c(C#N)[n+]2[O-]"
measured_value = "> 100 µM"

[[record]]
compound = "CC(=O)N1CCN([C@H]2CCC[C@@H](NC(=O)c3cc4c(F)ccc(C)c4[nH]3)C2)CC1"
measured_value = "> 100 µM"

[[record]]
compound = "NC1CCCCC1N.O=NN1CCCCCC1(P(=O)([O-])[O-])P(=O)([O-])[O-].[Na+].[Pt+2]"
measured_value = "> 100 µM"

[[record]]
compound = "CCOC(=O)NN(C(=O)OCC)C(=C(c1ccccc1)N1CCOCC1)N(NC(=O)OCC)C(=O)OCC"
measured_value = "> 100 µM"


Exercise: Dear colleague, I am looking for the recorded TGI of the following compound: Cc1ccc(C2(C)CC/C(=N/N=C3/CCC(C)(c4ccc(C)c(C)c4)c4cc(C)c(C)cc43)c3cc(C)c(C)cc32)cc1C (centres undefined)
Solution: > 100 µM

Exercise: Dear colleague, I am looking for the recorded TGI of the following compound: COC(=O)C(C(=O)C(=O)Nc1nc(=S)[nH][nH]1)c1csc(N)n1 (centres undefined)
Solution: > 100 µM

Exercise: Dear colleague, I am looking for the recorded TGI of the following compound: CC(=O)NCCC1CN(C(=O)/C=C\I)c2ccccc21 (centres undefined)
Solution: 3.29 µM

Exercise: Dear colleague, I am looking for the recorded TGI of the following compound: CC(C)C(NC(=O)OC(C)(C)C)C(=O)N(C)C(Cc1ccccc1)C(=O)N(C)C(C(=O)N(C)C(C(=O)O)C(C)C)C(C)C (centres undefined) (Boc-V[NMeF][NMeV][NMeV]-OH; configuration not given here)
Solution: > 100 µM

Exercise: Dear colleague, I am looking for the recorded TGI of the following compound: CCOC(=O)Nn1cnnc1C
Solution: > 100 µM

Exercise: Dear colleague, I am looking for the recorded TGI of the following compound: CC(C)[C@H](NC(=O)[C@H](C(C)C)N(Cc1ccccc1)Cc1ccccc1)C(=O)N(C)[C@H](C(=O)N1CCC[C@H]1C(=O)N(C)[C@H](C)C(=O)NCc1ccc(F)cc1)C(C)C (Bn2Val-V[NMeV]P[dNMeA]-{NH(4-F-benzyl)})
Solution: 7.61 µM

Exercise: Dear colleague, I am looking for the recorded TGI of the following compound: CN(C)c1nc(N(C)C)sc(=O)n1
Solution: > 100 µM
